Molecular target: recombinant human STIM1 and Orai1 (HEK-293 cells) (Homo sapiens, UniProt Q96D31)
Construct: c-myc (C); expressed in transfected cells; host or cells: HEK-293
Sequence (Q96D31 whole entry): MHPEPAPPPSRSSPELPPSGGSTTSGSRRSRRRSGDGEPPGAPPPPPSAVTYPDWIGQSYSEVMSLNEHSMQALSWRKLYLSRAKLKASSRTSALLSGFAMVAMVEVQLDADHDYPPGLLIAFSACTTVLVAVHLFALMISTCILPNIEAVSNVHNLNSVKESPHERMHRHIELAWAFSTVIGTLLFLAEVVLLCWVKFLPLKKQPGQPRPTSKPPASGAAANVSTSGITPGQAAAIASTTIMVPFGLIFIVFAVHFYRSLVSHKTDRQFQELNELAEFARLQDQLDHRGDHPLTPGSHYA
Test: Fluorescence-based assay of store-operated calcium entry in Orai1/STIM1 stable cells
Assay type: cell-based
Conditions: concentration that inhibited 50% of the Peak-Basal fluorescence signal; 30 min compound incubation; read-out: IC50(μM) JR251
measurement-name: IC50

Exercise: Which value of IC50 has been reported for `Cc1ccc(-c2scc(NC(=O)c3cc4c(F)cccn4n3)c2C(=O)O)c(F)c1` in the records?
Key: ≤ 0.5 µM

Exercise: Which value of IC50 has been reported for `Cc1ccc(-c2csc(NC(=O)c3nc4ccc(F)cc4s3)c2C(=O)O)c(F)c1F` in the records?
Key: ≤ 0.5 µM

Exercise: Which value of IC50 has been reported for `O=C(O)c1c(-c2ccc(Cl)cc2)csc1NC(=O)N1Cc2cccc(F)c2C1` in the records?
Key: ≤ 0.5 µM

Exercise: Which value of IC50 has been reported for `Cc1ccc(-c2csc(NC(=O)c3nc4c(F)cccc4s3)c2C(=O)O)c(F)c1` in the records?
Key: 0.5 to 1 µM

Exercise: Which value of IC50 has been reported for `Cc1ccc(-c2csc(NC(=O)c3nc4cccc(O)c4s3)c2C(=O)O)c(F)c1F` in the records?
Key: 0.5 to 1 µM

Exercise: Which value of IC50 has been reported for `Cc1ccc(-c2csc(NC(=O)c3sc4ccccc4[n+]3[O-])c2C(=O)O)c(F)c1F` in the records?
Key: 0.5 to 1 µM

Exercise: Which value of IC50 has been reported for `Cc1ccc(-c2csc(NC(=O)c3nc4cccc(Cl)c4s3)c2C(=O)O)c(F)c1F` in the records?
Key: 0.5 to 1 µM

Exercise: Which value of IC50 has been reported for `Cc1ccc(-c2csc(NC(=O)c3c(O)ccc(F)c3F)c2C(=O)O)c(F)c1F` in the records?
Key: ≤ 0.5 µM

Exercise: Which value of IC50 has been reported for `CC(=O)Nc1cccc2nc(C(=O)Nc3scc(-c4ccc(Cl)cc4)c3C(=O)O)sc12` in the records?
Key: 1 to 10 µM
